# target.or.test.system: Kinase A and SpoOF (Bacillus subtilis)
# Construct: made in house; host or cells: recombinant E. coli
# Sequence (P16497 whole entry): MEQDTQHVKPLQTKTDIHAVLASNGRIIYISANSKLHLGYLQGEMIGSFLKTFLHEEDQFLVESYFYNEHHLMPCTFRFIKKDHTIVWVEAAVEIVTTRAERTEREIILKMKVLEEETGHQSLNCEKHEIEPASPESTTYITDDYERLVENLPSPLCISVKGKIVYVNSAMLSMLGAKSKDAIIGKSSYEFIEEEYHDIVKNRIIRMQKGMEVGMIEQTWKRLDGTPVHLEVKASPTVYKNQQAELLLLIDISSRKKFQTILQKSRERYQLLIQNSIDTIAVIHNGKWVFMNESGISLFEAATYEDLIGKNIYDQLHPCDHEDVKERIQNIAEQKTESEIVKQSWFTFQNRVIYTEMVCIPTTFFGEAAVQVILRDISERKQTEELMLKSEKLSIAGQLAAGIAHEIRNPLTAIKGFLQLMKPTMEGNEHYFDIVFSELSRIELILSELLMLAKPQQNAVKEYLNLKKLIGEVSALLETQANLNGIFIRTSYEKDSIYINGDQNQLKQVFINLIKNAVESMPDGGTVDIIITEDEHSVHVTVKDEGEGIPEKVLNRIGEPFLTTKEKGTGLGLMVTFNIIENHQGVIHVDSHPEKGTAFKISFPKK
# method.notes: Autophosphorylation of Kinase A and Transphosphorylation of SpoOF Assay (HPK in vitro assay)
# Format: biochemical
# measurement.parameters: [32P]ATP, gel/phosphoimager, inhibitor concentrations from 1 to 500 μM, IC50 of less than 1000 μM considered active
property.measured: IC50
Number first, unit second: that is the form wanted.

Hello, I would appreciate it if you could give IC50 for each entry below.
1. N=C(N)NCCC1Oc2ccccc2N(Cc2ccccc2Cl)C1=O (stereo not drawn) [Example 22]
2. N=C(N)NCCC1Oc2cccnc2N(Cc2cccc(Cl)c2)C1=O (stereo not drawn) [Example 20]
3. N=C(N)NCCC1Oc2ccc(C(F)(F)F)cc2N(Cc2cccc(Cl)c2)C1=O (stereo not drawn) [Example 18]
4. Cc1ccc2c(c1)N(Cc1cccc(Cl)c1)C(=O)C(CCNC(=N)N)O2 (stereo not drawn) [Example 19]
5. O=C1C(CCSC(=S)N2CCCC2)Oc2ccccc2N1Cc1ccccc1Cl (stereo not drawn) [Example 25]
6. N=C(N)NCCC1Oc2cc([N+](=O)[O-])ccc2N(Cc2cccc(Cl)c2)C1=O (stereo not drawn) [Example 23]

Outgoing:
1. 325 µM
2. 344 µM
3. 80 µM
4. 52 µM
5. 274 µM
6. 182 µM
